Reference source: the supplement of paper PMC4466140

# target desc: ScFus1
# assay summary: SPOT peptide array binding signal intensity (averaged, normalized) (arbitrary units (background-subtracted, floor 0; scale differs between SH3 domains)); higher = stronger binding of the SH3 domain to the peptide
property measured: SPOT peptide array binding signal intensity
Give bare numbers.

Below, each entry is followed by its recorded SPOT peptide array binding signal intensity result.
1. QLMKNLPKIPLLNDI: 526
2. SKAKRPKFLLDLQIK: 268
3. GRSRLFPHSPLGRSS: 374
4. SKSRLLIELPEGFFT: 317

Parameters: items (list). Returns: SPOT peptide array binding signal intensity for each item.
1. RSRRSSFAYPQQVAI
2. RMVRRRPLRVQFSAR

[157, 1530]
